Just for reference, patent US9102648B1 is where these values come from.

target_desc: GAL4 DBD-CfEcR(DEF)/VP16AD-MmRXRE (Choristoneura fumiferana, UniProt O77240)
assay_remarks: 13B3 Assay (CHO stable cell line, luciferase reporter)
measurement_context: read-out: Fold Induction, 13B3 Assay, 3.3 uM

compound: CCc1c(OC)cccc1C(=O)NN(C(=O)c1cc(C)cc(/C=N/NC(N)=O)c1)C(C)(C)C [RG-115429]
target_desc: GAL4 DBD-CfEcR(DEF)/VP16AD-MmRXRE (Choristoneura fumiferana, UniProt O77240)
fold induction at 3.3 µM: 18
//
compound: CNCc1c(OC)cccc1C(=O)NN(C(=O)c1cc(C)cc(C)c1)C(C)(C)C [RG-115079]
target_desc: GAL4 DBD-CfEcR(DEF)/VP16AD-MmRXRE (Choristoneura fumiferana, UniProt O77240)
fold induction at 3.3 µM: 3
//
compound: COc1cc(C(=O)N(NC(=O)c2ccc3c(c2C)OCCO3)C(C)(C)C)cc(OC)c1O [RG-115009]
target_desc: GAL4 DBD-CfEcR(DEF)/VP16AD-MmRXRE (Choristoneura fumiferana, UniProt O77240)
fold induction at 3.3 µM: 19
//
compound: CCc1c(OC)cccc1C(=O)NN(C(=O)c1cc(C)cc(C)c1)C(C)(C)CO[Si](C)(C)C(C)(C)C [RG-115665]
target_desc: GAL4 DBD-CfEcR(DEF)/VP16AD-MmRXRE (Choristoneura fumiferana, UniProt O77240)
fold induction at 3.3 µM: 1
//
compound: COc1cccc(C(=O)NN(C(=O)c2cc(Cl)c(F)c(Cl)c2)C(C)(C)C)c1C [RG-101382]
target_desc: GAL4 DBD-CfEcR(DEF)/VP16AD-MmRXRE (Choristoneura fumiferana, UniProt O77240)
fold induction at 3.3 µM: 13100
//
compound: Cc1cc(C)cc(C(=O)N(NC(=O)c2ccc3c(c2C)OCCO3)C(C)(C)C)c1 [RG-102317]
target_desc: GAL4 DBD-CfEcR(DEF)/VP16AD-MmRXRE (Choristoneura fumiferana, UniProt O77240)
fold induction at 3.3 µM: 2420
//
compound: CCC(N(NC(=O)c1cccc(C)c1C)C(=O)c1cc(C)cc(C)c1)C(C)(C)C (centres unmarked) [RG-103309]
target_desc: GAL4 DBD-CfEcR(DEF)/VP16AD-MmRXRE (Choristoneura fumiferana, UniProt O77240)
fold induction at 3.3 µM: 924
//
compound: COc1cccc(C(=O)NN(C(=O)c2cc(C)cc(C)c2)C(C)(C)C)c1CO [RG-115371]
target_desc: GAL4 DBD-CfEcR(DEF)/VP16AD-MmRXRE (Choristoneura fumiferana, UniProt O77240)
fold induction at 3.3 µM: 1

----------
target_desc: GAL4 DBD-CfEcR(DEF)/VP16AD-MmRXRE (Choristoneura fumiferana, UniProt O77240)
assay_remarks: 13B3 Assay (CHO stable cell line, luciferase reporter)
measurement_context: 33 uM ligand; RLU ligand treated / RLU DMSO treated cells; average of two wells

molecule: CCc1c(OC)cccc1C(=O)NN(C(=O)c1cnc(C)cn1)C(C)(C)C
Fold Induction, 13B3 Assay, 33 uM: 1
//
molecule: CCc1ccc(C(=O)NN(C(=O)c2cc(C)ccc2[N+](=O)[O-])C(C)(C)C)cc1
Fold Induction, 13B3 Assay, 33 uM: 159
//
molecule: CCc1cccc(C(=O)NN(C(=O)c2cc(C)cc(C)c2)C(C)(C)C)c1C
Fold Induction, 13B3 Assay, 33 uM: 630
//
molecule: CCc1c(OC)cccc1C(=O)NN(C(=O)c1ccc(F)cc1)C(C)(C)C
Fold Induction, 13B3 Assay, 33 uM: 202
//
molecule: Cc1ccc(C(=O)NN(C(=O)c2cc(C)cc(C)c2)C(C)(C)C)cc1
Fold Induction, 13B3 Assay, 33 uM: 439
//
molecule: Cc1c(Cl)cccc1C(=O)NN(C(=O)c1cccc(Cl)c1)C(C)(C)C
Fold Induction, 13B3 Assay, 33 uM: 7
//
molecule: CC(=O)c1cccc(C(=O)NN(C(=O)c2cc(C)cc(C)c2)C(C)(C)C)c1C
Fold Induction, 13B3 Assay, 33 uM: 1151
//
molecule: CCc1c(OC)cccc1C(=O)NN(C(=O)c1c(F)cccc1F)C(C)(C)C
Fold Induction, 13B3 Assay, 33 uM: 12
//
molecule: Cc1cc(C)cc(C(=O)N(NC(=O)c2ccc3c(c2)COCO3)C(C)(C)C)c1
Fold Induction, 13B3 Assay, 33 uM: 4693
//
molecule: Cc1cc(C)cc(C(=O)N(NC(=O)c2cc3c(cc2Cl)OCO3)C(C)(C)C)c1
Fold Induction, 13B3 Assay, 33 uM: 8453
//
molecule: Cc1cc(C)cc(C(=O)N(NC(=O)c2ccc3c(c2)OC(C)O3)C(C)(C)C)c1 (stereo not drawn)
Fold Induction, 13B3 Assay, 33 uM: 744
//
molecule: CCc1c(OC)cccc1C(=O)NN(C(=O)c1cc(Cl)ccc1[N+](=O)[O-])C(C)(C)C
Fold Induction, 13B3 Assay, 33 uM: 354
//
molecule: Cc1cc(C)cc(C(=O)N(NC(=O)c2ccc3c(c2Br)OCCO3)C(C)(C)C)c1
Fold Induction, 13B3 Assay, 33 uM: 879
//
molecule: COc1cccc(C(=O)NN(C(=O)c2ccc(Cl)cc2F)C(C)(C)C)c1C
Fold Induction, 13B3 Assay, 33 uM: 359
//
molecule: CCc1ccc(C(=O)NN(C(=O)c2ccc(F)cc2)C(C)(C)C)c(F)c1
Fold Induction, 13B3 Assay, 33 uM: 882
//
molecule: CCc1c(C(=O)NN(C(=O)c2ccccc2OC)C(C)(C)C)ccc2c1OCCO2 [RG-115244]
Fold Induction, 13B3 Assay, 33 uM: 573
//
molecule: CC(O)c1ccc(C(=O)NN(C(=O)c2cc(F)cc(F)c2)C(C)(C)C)cc1 (stereo not drawn)
Fold Induction, 13B3 Assay, 33 uM: 611
//
molecule: CCc1ccc(C(=O)NN(C(=O)c2ccccc2CC)C(C)(C)C)cc1
Fold Induction, 13B3 Assay, 33 uM: 909
//
molecule: Cc1c(C(=O)NN(C(=O)c2ccccc2[S+](C)[O-])C(C)(C)C)ccc2c1OCCO2 (stereo not drawn)
Fold Induction, 13B3 Assay, 33 uM: 415
//
molecule: COc1ccc(C(=O)NN(C(=O)c2cc(Cl)cc(Cl)c2)C(C)(C)C)cc1
Fold Induction, 13B3 Assay, 33 uM: 7393
//
molecule: COc1cccc(C(=O)NN(C(=O)c2cc(C)cc(C)c2)C(C)(C)C)c1[N+](=O)[O-]
Fold Induction, 13B3 Assay, 33 uM: 4122
//
molecule: CCc1c(C(=O)NN(C(=O)c2cc(Cl)nc(Cl)c2)C(C)(C)C)ccc2c1OCCO2
Fold Induction, 13B3 Assay, 33 uM: 304
//
molecule: CCc1c(OC)cccc1C(=O)NN(C(=O)c1ccccc1OC)C(C)(C)C
Fold Induction, 13B3 Assay, 33 uM: 581
//
molecule: CCc1c(OC)cccc1C(=O)NN(C(=O)c1ccccc1[N+](=O)[O-])C(C)(C)C
Fold Induction, 13B3 Assay, 33 uM: 3577
//
molecule: CCc1c(C(=O)NN(C(=O)c2ccc(F)c(F)c2F)C(C)(C)C)ccc2c1OCCO2
Fold Induction, 13B3 Assay, 33 uM: 298
//
molecule: CCc1ccc(C(=O)NN(C(=O)c2cc(C)cc(Cl)c2)C(C)(C)C)cc1
Fold Induction, 13B3 Assay, 33 uM: 526
//
molecule: COc1cc(C(=O)N(NC(=O)c2ccc3c(c2C)OCCO3)C(C)(C)C)c([N+](=O)[O-])c(OC)c1C
Fold Induction, 13B3 Assay, 33 uM: 4217

----------
target_desc: GAL4 DBD (1-147)-CfEcR(DEF)/VP16AD-βRXREF-LmUSPEF (Choristoneura fumiferana)
assay_remarks: cell-based
measurement_context: 33 uM ligand; RLU ligand treated / RLU DMSO treated cells; average of two wells
Reported Fold Induction, 27-63 Assay, 33 uM is given for each of the following compounds.

compound: Cc1cc(C)cc(C(=O)N(NC(=O)c2ccc3c(c2)COCO3)C(C)(C)C)c1
Fold Induction, 27-63 Assay, 33 uM: 1347

compound: CCc1c(OC)cccc1C(=O)NN(C(=O)c1cc(C)cc(C)c1)C(CC)C(C)(C)C (centres unmarked)
Fold Induction, 27-63 Assay, 33 uM: 1435

compound: Cc1cc(C)cc(C(=O)N(NC(=O)c2ccc3c(c2)CCCC3)C(C)(C)C)c1
Fold Induction, 27-63 Assay, 33 uM: 1107

compound: CCCCC(N(NC(=O)c1ccc(CC)cc1)C(=O)c1cccnc1OC)C(C)(C)C (centres unmarked)
Fold Induction, 27-63 Assay, 33 uM: 447

compound: Cc1cc(C)cc(C(=O)N(NC(=O)c2cc3c(cc2Cl)OCO3)C(C)(C)C)c1
Fold Induction, 27-63 Assay, 33 uM: 1357

compound: CCc1c(C(=O)NN(C(=O)c2ccc(Cl)cc2OC)C(C)(C)C)ccc2c1OCO2
Fold Induction, 27-63 Assay, 33 uM: 1149

compound: COc1cccc(C(=O)NN(C(=O)c2cc(C)ccc2[N+](=O)[O-])C(C)(C)C)c1C
Fold Induction, 27-63 Assay, 33 uM: 841

compound: COc1cccc(C(=O)NN(C(=O)c2cccc(C)c2)C(C)(C)C)c1C
Fold Induction, 27-63 Assay, 33 uM: 1004
